# credit: ChEMBL document CHEMBL3774340

Molecular target: UniProtKB O15164
Sequence (O15164 whole entry, the tested form may be a part): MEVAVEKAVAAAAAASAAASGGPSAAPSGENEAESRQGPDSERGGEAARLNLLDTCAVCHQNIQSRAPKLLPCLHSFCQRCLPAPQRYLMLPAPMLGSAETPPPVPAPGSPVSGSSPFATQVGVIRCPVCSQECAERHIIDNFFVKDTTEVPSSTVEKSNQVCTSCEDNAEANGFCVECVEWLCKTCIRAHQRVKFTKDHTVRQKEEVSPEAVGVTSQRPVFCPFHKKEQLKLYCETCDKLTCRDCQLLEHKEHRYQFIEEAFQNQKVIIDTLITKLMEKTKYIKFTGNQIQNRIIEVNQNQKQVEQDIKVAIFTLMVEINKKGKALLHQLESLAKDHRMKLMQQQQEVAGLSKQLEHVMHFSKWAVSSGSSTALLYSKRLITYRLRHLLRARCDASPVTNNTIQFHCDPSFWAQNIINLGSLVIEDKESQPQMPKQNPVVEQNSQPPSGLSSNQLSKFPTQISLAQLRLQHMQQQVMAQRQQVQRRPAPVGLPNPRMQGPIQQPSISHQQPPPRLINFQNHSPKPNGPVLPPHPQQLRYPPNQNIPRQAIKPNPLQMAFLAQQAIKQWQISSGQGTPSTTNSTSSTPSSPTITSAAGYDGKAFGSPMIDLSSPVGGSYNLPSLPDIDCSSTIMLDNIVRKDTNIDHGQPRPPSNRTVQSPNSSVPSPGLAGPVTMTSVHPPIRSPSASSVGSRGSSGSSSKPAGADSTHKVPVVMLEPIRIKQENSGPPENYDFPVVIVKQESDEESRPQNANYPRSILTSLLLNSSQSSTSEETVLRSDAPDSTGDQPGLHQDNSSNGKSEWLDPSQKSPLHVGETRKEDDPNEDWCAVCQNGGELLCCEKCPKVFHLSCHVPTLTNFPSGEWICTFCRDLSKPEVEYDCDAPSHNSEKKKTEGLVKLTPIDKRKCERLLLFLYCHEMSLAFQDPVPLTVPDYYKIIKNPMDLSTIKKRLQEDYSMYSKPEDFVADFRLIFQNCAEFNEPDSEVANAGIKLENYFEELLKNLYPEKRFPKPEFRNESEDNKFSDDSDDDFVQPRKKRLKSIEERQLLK
Assay: Inhibition of recombinant human His-tagged TRIM24-PHD/bromodomain expressed in Escherichia coli strains BL21 (DE3) cells using biotinylated H3K23ac (1 to 33 residues) peptide after 1 hr by AlphaScreen assay
QUANTITY_KIND: IC50 (µM)
Give the number; µM is assumed, so skip it.

Here are 5 compounds together with their reported answers.
[[record]]
chem_smiles = "Cc1nc(-c2ccc3c(c2)CC(=O)N3C)cs1"
measurement_target = "UniProtKB O15164"
observed_measurement = 8.5

[[record]]
chem_smiles = "CC(C)COc1cccc(Oc2ccc3c(c2)n(C)c(=O)n3C)c1"
measurement_target = "UniProtKB O15164"
observed_measurement = 2.4

[[record]]
chem_smiles = "CC(C)COc1cccc(Oc2cc3c(cc2NS(=O)(=O)C2CC2)n(C)c(=O)n3C)c1"
measurement_target = "UniProtKB O15164"
observed_measurement = 0.11

[[record]]
chem_smiles = "COc1cc2c(cc1NS(=O)(=O)c1cccc(C#N)c1)n(C)c(=O)n2C"
measurement_target = "UniProtKB O15164"
observed_measurement = 10

[[record]]
chem_smiles = "CCOc1cccc(Oc2cc3c(cc2NS(=O)(=O)c2cn(C)c(C)n2)n(C)c(=O)n3C)c1"
measurement_target = "UniProtKB O15164"
observed_measurement = 0.18


Quick one: IC50 of `COc1ccc(S(=O)(=O)Nc2ccc3c(c2)CCC(=O)N3C)c(OC)c1` ? 2.5

Quick one: IC50 of `CSc1ccc(S(=O)(=O)Nc2ccc3c(c2)n(C)c(=O)n3C)cc1` ? 4.9

Quick one: IC50 of `CSc1ccc(S(=O)(=O)Nc2ccc3c(c2)N(C)C(=O)CC3)cc1` ? 14
